src = PubChem BioAssay (NCI)

Form field: TGI (one value per entry).
- Tested on: PC-3 prostate
- METHOD_DESCRIPTION: NCI tumour cell line growth inhibition, 48 h
QUANTITY: TGI

STRUCTURE | RESULT
CC(=NCCN(CCN=C(C)c1c(O)cc(C)oc1=O)CCN=C(C)c1c(O)cc(C)oc1=O)c1c(O)cc(C)oc1=O | > 100 µM
CC(=Nc1c2ccccc2nc2ccccc12)N(C)C | 46.8 µM
CO/C(=N\N=C\c1ccc(Cl)cc1Cl)c1ccncc1 | > 10 µM
COc1cc2c(cc1OCCCOC1=C=C=C(c3ccc4c(c3)c3cc(-c5ccc(OCCCOc6cc7c(cc6OC)C(=O)N6CCC[C@H]6C=N7)cc5)ccc3n4S(=O)(=O)c3ccc(C)cc3)C=C1)N=C[C@@H]1CCCN1C2=O | > 28.9 µM
